# procedure summary: Antioxidant activity assessed as superoxide radical scavenging activity by chemiluminescence analysis
# Assay type: functional
Form field: IC50 (one value per entry).

compound	IC50
COc1cc(C2Oc3c(OC)cc(/C=C/C=O)cc3C2COC(=O)c2ccc(O)cc2)ccc1O (stereo unspecified)	> 200 µM
CCO[C@H](c1ccc(O)c(OC)c1)[C@H](COC(=O)c1ccc(O)cc1)Oc1ccc(/C=C/COC(=O)c2ccc(O)cc2)cc1OC (relative stereo) [QUIQUESETINERVIUSIN C]	> 200 µM
Cc1c(C)c2c(c(C)c1O)CCC(C)(C(=O)O)O2 (stereo unspecified) [TROLOX]	25.3 µM
COc1cc(/C=C/C(=O)OC[C@H]2O[C@@](CO)(O[C@H]3O[C@H](COC(C)=O)[C@@H](OC(=O)/C=C/c4ccc(O)cc4)[C@H](O)[C@H]3O)[C@@H](OC(=O)/C=C/c3ccc(O)c(OC)c3)[C@@H]2O)ccc1O	> 200 µM
COc1cc(/C=C/C(=O)OC[C@H]2O[C@@](CO)(O[C@H]3O[C@H](COC(C)=O)[C@@H](OC(=O)/C=C/c4ccc(O)c(OC)c4)[C@H](O)[C@H]3O)[C@@H](OC(=O)/C=C/c3ccc(O)c(OC)c3)[C@@H]2O)ccc1O	> 200 µM
COc1cc([C@H]2Oc3c(OC)cc(/C=C/COC(=O)c4ccc(O)cc4)cc3[C@@H]2COC(=O)c2ccc(O)cc2)cc(OC)c1O [QUIQUESETINERVIUSIN B]	> 200 µM

====

# Tested on: Radical scavenging activity
# procedure summary: Antioxidant activity assessed as DPPH radical scavenging activity after 30 mins by ELISA reader
# Format: functional
Form field: IC50 (one value per entry).
readout type: IC50 (µM)

molecule	unit abbreviation	value modifier	result value
COc1cc(/C=C/C(=O)OC[C@H]2O[C@@](CO)(O[C@H]3O[C@H](CO)[C@@H](OC(=O)/C=C/c4ccc(O)cc4)[C@H](O)[C@H]3OC(C)=O)[C@@H](OC(=O)/C=C/c3ccc(O)c(OC)c3)[C@@H]2O)ccc1O	µM	=	68.4
CCO[C@H](c1ccc(O)c(OC)c1)[C@H](COC(=O)c1ccc(O)cc1)Oc1ccc(/C=C/COC(=O)c2ccc(O)cc2)cc1OC (relative stereo)	µM	>	100
COc1cc(/C=C/C(=O)OC[C@H]2O[C@@](CO)(O[C@H]3O[C@H](COC(C)=O)[C@@H](OC(=O)/C=C/c4ccc(O)c(OC)c4)[C@H](O)[C@H]3O)[C@@H](OC(=O)/C=C/c3ccc(O)c(OC)c3)[C@@H]2O)ccc1O	µM	=	99.6
COc1cc(/C=C/C(=O)OC[C@H]2O[C@@](CO)(O[C@H]3O[C@H](COC(C)=O)[C@@H](OC(=O)/C=C/c4ccc(O)cc4)[C@H](O)[C@H]3O)[C@@H](OC(=O)/C=C/c3ccc(O)c(OC)c3)[C@@H]2O)ccc1O	µM	=	64.4
COc1cc(/C=C/C(=O)OC[C@H]2O[C@@](CO)(O[C@H]3O[C@H](CO)[C@@H](OC(=O)/C=C/c4ccc(O)c(OC)c4)[C@H](O)[C@H]3O)[C@@H](OC(=O)/C=C/c3ccc(O)c(OC)c3)[C@@H]2O)ccc1O	µM	=	62.5
COc1cc(/C=C/C(=O)OC[C@H]2O[C@@](CO)(O[C@H]3O[C@H](CO)[C@@H](OC(=O)/C=C/c4ccc(O)c(OC)c4)[C@H](O)[C@H]3OC(C)=O)[C@@H](OC(=O)/C=C/c3ccc(O)c(OC)c3)[C@@H]2O)ccc1O	µM	=	69.1
Cc1c(C)c2c(c(C)c1O)CCC(C)(C(=O)O)O2 (centres undefined)	µM	=	32.9
COc1cc([C@H](O)[C@H](CO)Oc2c(OC)cc(-c3cc(=O)c4c(O)cc(O)cc4o3)cc2OC)ccc1O	µM	>	100
COc1cc(C2Oc3c(OC)cc(/C=C/C=O)cc3C2COC(=O)c2ccc(O)cc2)ccc1O (centres undefined)	µM	>	100
